Values were extracted from PubChem BioAssay (NCI).

Test system: 786-0 renal
Assay info: NCI tumour cell line growth inhibition, 48 h
Parameter measured: TGI (µM)
The figure you give is taken to be in µM; do not add the unit.

Observe how each entry below is paired with its result.
Fill in the blank: the reported TGI of CCCCn1c(=O)c(/C=C/C(=O)/C=C/c2ccc(O)c(OC)c2)cc2ccc(Cl)cc21 is ____.
3.31

Fill in the blank: the reported TGI of O=C(Cc1ccccc1)NN1C(=O)C(Cl)C1c1cc(Br)cc(Br)c1O (stereo not given) is ____.
36.7

Fill in the blank: the reported TGI of C[C@]1(O)CC(=O)[C@]2(O)C3=C(C=C[C@]2(O)C1)C(=O)c1c(O)cccc1C3=O is ____.
8.5

Kindly consider the entry below.
Fill in the blank: the reported TGI of CN([N-]C(=O)CC(=O)[N-]N(C)C(=S)c1ccccc1)C(=S)c1ccccc1.[Cu+2] is ____.
0.116

###

System: UACC-257 melanoma
Assay info: NCI tumour cell line growth inhibition, 48 h
In this section we review reported TGI values for a set of compounds.

Observe how each entry below is paired with its result.
Fill in the blank: the reported TGI of O=C(CN1CCOCC1)NC1=Nc2ncccc2C(=O)NN1 is ____.
> 10 µM

Fill in the blank: the reported TGI of CC(=O)c1ccc(NCn2nc(-c3ccccc3O)oc2=S)cc1 is ____.
> 100 µM

Others:
Fill in the blank: the reported TGI of CCOC(=O)NC(=O)c1cn(-c2ccc(CCOC(=O)CCCCCCCCC(=O)OCCc3ccc(-n4cc(C(=O)NC(=O)OCC)c(=O)[nH]c4=O)cc3)cc2)c(=O)[nH]c1=O is ____.
> 100 µM

Fill in the blank: the reported TGI of Cc1ccc(-c2n[nH]c(=O)n2N)cc1 is ____.
> 100 µM

Fill in the blank: the reported TGI of N#C/C(=C/c1cccs1)c1cccs1 is ____.
> 100 µM

Fill in the blank: the reported TGI of COc1ccc(S(=O)(=O)N2CCCCC2)cc1NC(=O)c1[nH]c(C)c2c1CCCCC2=O is ____.
24.7 µM

Fill in the blank: the reported TGI of O=S(=O)(O)c1cc(O)c2c(O)c(N=Nc3ccc(/C=C/c4ccc(N=Nc5c(S(=O)(=O)O)cc6cc(S(=O)(=O)O)cc(O)c6c5O)cc4S(=O)(=O)O)c(S(=O)(=O)O)c3)c(S(=O)(=O)O)cc2c1 is ____.
> 100 µM

###

Test system: MDA-MB-435
Assay info: NCI tumour cell line growth inhibition, 48 h
Parameter measured: TGI (µM)
The figure you give is taken to be in µM; do not add the unit.

Fill in the blank: the reported TGI of CN1CCN(c2ccc3nc(-c4ccc5nc(-c6ccc(C(F)(F)F)cc6)[nH]c5c4)[nH]c3c2)CC1 is ____.
3.1

Fill in the blank: the reported TGI of O=c1[nH]ncc2[nH]c3c(c12)CCCc1ccccc1-3 is ____.
82.9

Fill in the blank: the reported TGI of CN([N-]C(=O)CC(=O)[N-]N(C)C(=S)c1ccccc1)C(=S)c1ccccc1.[Cu+2] is ____.
0.171

Fill in the blank: the reported TGI of C=C(C)[C@@H]1CC[C@]2(C)[C@H](CC=C3[C@@H]4CC(C)(C)CC[C@]4(C(=O)OC)CC[C@]32C)[C@@]1(C)CC/C(N)=N/O is ____.
3.65

Kindly consider the entry below.
Fill in the blank: the reported TGI of S=c1scc(-c2ccc(Cl)cc2)n1OC1CCCC1 is ____.
79.3
